B1: POU domain, class 3, transcription factor 2, residues 262 to 338; numbered along this chain, P20265 (parent)
chain: EDTPTSDDLEQFAKQFKQRRIKLGFTQADVGLALGTLYGNVFSQTTICRFEALQLSFKNMCKLKPLLNKWLEEADSS

variants of: B1; assay: abundance fitness (aPCA) (normalised: wild type 0, dead -1); higher = more abundant; growth selection in yeast, the domain comes from the species named; details: Homo sapiens
Give Satisfied when the value for abundance fitness is at least -0.6. Give Not satisfied when it is less.

Would you please look over these solved cases?
sequence variant	category
E72F	Satisfied
M60W	Not satisfied
T46A	Satisfied
K17E	Satisfied
K62C	Satisfied
R20N	Not satisfied

Please turn your attention to the following entry.
Asked: API: above_or_equal(metric=abundance fitness, cutoff=-0.6) for item "W70Q"
Given back: Not satisfied
